src = paper PMC9516332

Can you tell me inhibition at 1 µM for the items I'm about to list?
assay_target: panel of 255 wild-type kinases (Homo sapiens, UniProt Q9BZL6)
Sequence (Q9BZL6 1-878): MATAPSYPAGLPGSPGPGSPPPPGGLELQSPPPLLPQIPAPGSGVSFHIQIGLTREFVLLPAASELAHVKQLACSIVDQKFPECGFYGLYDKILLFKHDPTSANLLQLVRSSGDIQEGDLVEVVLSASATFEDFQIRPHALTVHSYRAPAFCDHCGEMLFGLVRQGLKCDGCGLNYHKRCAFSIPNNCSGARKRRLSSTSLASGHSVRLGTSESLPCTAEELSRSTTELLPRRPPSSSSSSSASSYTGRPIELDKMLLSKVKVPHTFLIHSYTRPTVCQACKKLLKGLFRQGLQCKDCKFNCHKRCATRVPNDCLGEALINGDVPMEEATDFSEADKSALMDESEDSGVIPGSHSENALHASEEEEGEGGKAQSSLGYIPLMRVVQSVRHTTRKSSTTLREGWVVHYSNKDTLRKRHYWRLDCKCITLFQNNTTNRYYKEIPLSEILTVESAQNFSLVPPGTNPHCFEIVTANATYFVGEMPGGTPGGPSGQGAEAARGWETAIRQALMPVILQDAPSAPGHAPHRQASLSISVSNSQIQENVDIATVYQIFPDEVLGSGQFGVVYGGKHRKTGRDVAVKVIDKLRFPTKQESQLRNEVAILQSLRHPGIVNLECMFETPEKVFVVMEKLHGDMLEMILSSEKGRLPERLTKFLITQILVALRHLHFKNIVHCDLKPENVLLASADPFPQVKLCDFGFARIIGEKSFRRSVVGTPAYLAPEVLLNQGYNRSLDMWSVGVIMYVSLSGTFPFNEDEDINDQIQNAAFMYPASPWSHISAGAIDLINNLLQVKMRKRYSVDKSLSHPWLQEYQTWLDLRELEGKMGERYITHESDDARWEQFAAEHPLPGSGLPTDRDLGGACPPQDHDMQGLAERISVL
assay_text: Kinase panel profiling at 1 µmol/L (MSA or IMAP), percentage inhibition
Format: biochemical
test_context: kinase PKD2; 1 µmol/L single concentration; read-out: %-inhibition at 1 µmol/L, PKD2
One number for each entry, in %.

Consider the reported inhibition at 1 µM for these compounds:
smiles_repr | inhibition at 1 µM, %
COc1cc2ncnc(Nc3ccc(F)c(Cl)c3)c2cc1NC(=O)/C=C/CN1CCCCC1 | 10
Cn1cnc2c(F)c(Nc3ccc(Br)cc3F)c(C(=O)NOCCO)cc21 | -7
C[C@H]1Oc2cc(cnc2N)-c2c(nn(C)c2C#N)CN(C)C(=O)c2ccc(F)cc21 | -11

// next item, inhibition at 1 µM requested
Q. Please indicate inhibition at 1 µM recorded for "CCn1c(=O)c(-c2cc(NC(=O)Nc3ccccc3)c(F)cc2Br)cc2cnc(NC)cc21"
A. 13

---

Can you tell me inhibition at 1 µM for the items I'm about to list?
assay_target: panel of 255 wild-type kinases (Homo sapiens, UniProt Q13177)
Sequence (Q13177 whole entry): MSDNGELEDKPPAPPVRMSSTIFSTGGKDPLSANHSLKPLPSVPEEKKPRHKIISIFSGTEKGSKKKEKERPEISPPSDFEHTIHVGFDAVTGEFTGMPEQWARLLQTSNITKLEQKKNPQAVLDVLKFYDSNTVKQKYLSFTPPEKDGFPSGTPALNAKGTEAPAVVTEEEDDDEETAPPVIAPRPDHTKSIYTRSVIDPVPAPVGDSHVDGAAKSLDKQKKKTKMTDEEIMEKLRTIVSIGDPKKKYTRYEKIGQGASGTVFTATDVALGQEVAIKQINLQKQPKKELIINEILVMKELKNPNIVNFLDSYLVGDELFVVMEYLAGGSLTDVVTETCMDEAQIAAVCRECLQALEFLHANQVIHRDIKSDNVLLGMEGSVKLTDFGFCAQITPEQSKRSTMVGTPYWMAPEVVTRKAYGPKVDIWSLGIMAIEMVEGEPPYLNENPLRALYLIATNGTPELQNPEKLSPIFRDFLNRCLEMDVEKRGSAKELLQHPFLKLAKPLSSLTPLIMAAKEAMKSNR
assay_text: Kinase panel profiling at 1 µmol/L (MSA or IMAP), percentage inhibition
Format: biochemical
test_context: PAK2; 1 µmol/L single concentration; read-out: %-inhibition, PAK2
Answers are plain numbers, in %.

Consider the reported inhibition at 1 µM for these compounds:
smiles_repr | inhibition at 1 µM / %
Cc1nc(NC(=O)N2CCC[C@H]2C(N)=O)sc1-c1ccnc(C(C)(C)C(F)(F)F)c1 | -7
C=CC(=O)N1CCC([C@@H]2CCNc3c(C(N)=O)c(-c4ccc(Oc5ccccc5)cc4)nn32)CC1 | 10
CCc1nc(C(N)=O)c(Nc2ccc(N3CCC(N4CCN(C)CC4)CC3)c(OC)c2)nc1NC1CCOCC1 | 10

// next item, inhibition at 1 µM requested
Q. Please indicate inhibition at 1 µM recorded for "CCn1c(=O)c(-c2cc(NC(=O)Nc3ccccc3)c(F)cc2Br)cc2cnc(NC)cc21"
A. 4.69

---

assay_target: panel of 255 wild-type kinases (Homo sapiens, UniProt P45984)
Sequence (P45984 whole entry): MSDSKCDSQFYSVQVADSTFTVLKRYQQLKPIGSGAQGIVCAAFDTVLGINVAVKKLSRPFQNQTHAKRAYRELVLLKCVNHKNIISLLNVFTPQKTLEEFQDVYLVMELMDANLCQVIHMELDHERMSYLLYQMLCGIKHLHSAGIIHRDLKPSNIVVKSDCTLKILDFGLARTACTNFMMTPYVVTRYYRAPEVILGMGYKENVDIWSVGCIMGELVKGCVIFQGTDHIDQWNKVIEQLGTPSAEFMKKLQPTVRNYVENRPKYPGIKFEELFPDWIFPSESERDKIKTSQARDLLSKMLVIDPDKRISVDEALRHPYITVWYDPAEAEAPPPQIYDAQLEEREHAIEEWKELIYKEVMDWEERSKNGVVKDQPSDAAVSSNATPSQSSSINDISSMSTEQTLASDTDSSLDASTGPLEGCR
assay_text: Kinase panel profiling at 1 µmol/L (MSA or IMAP), percentage inhibition
Type: biochemical
test_context: kinase JNK2; 1 µmol/L single concentration; read-out: %-inhibition at 1 µmol/L, JNK2
measurement_name: inhibition at 1 µM

Look up inhibition at 1 µM for the entries below, preserving their order.
1. CN1CCN(c2ccc(C(=O)Nc3n[nH]c4ccc(Cc5cc(F)cc(F)c5)cc34)c(NC3CCOCC3)c2)CC1 [entrectinib]
2. Cn1cc(-c2cc3c(N4CCN(c5ncc([C@@](C)(N)c6ccc(F)cc6)cn5)CC4)ncnn3c2)cn1 [avapritinib]
3. Cn1cnc2c(F)c(Nc3ccc(Br)cc3F)c(C(=O)NOCCO)cc21 [binimetinib]
4. CCc1nc(C(N)=O)c(Nc2ccc(N3CCC(N4CCN(C)CC4)CC3)c(OC)c2)nc1NC1CCOCC1 [gilteritinib]

A.
7%
1.1%
-5.47%
44%

Look up inhibition at 1 µM for the entries below, preserving their order.
1. CCn1c(=O)c(-c2cc(NC(=O)Nc3ccccc3)c(F)cc2Br)cc2cnc(NC)cc21 [ripretinib]
2. C[C@H]1Oc2cc(cnc2N)-c2c(nn(C)c2C#N)CN(C)C(=O)c2ccc(F)cc21 [lorlatinib]
3. Cn1cnc2c(F)c(Nc3ccc(Br)cc3Cl)c(C(=O)NOCCO)cc21 [selumetinib]

A.
35%
3.24%
-2.13%

Q. Provide the reported inhibition at 1 µM (system: panel of 255 wild-type kinases (Homo sapiens, UniProt P45984)) for COC(=O)N[C@@H](C)CNc1nccc(-c2cn(C(C)C)nc2-c2cc(Cl)cc(NS(C)(=O)=O)c2F)n1 [encorafenib]
A. 61%

---

assay_target: panel of 255 wild-type kinases (Homo sapiens, UniProt O94806)
Sequence (O94806 whole entry): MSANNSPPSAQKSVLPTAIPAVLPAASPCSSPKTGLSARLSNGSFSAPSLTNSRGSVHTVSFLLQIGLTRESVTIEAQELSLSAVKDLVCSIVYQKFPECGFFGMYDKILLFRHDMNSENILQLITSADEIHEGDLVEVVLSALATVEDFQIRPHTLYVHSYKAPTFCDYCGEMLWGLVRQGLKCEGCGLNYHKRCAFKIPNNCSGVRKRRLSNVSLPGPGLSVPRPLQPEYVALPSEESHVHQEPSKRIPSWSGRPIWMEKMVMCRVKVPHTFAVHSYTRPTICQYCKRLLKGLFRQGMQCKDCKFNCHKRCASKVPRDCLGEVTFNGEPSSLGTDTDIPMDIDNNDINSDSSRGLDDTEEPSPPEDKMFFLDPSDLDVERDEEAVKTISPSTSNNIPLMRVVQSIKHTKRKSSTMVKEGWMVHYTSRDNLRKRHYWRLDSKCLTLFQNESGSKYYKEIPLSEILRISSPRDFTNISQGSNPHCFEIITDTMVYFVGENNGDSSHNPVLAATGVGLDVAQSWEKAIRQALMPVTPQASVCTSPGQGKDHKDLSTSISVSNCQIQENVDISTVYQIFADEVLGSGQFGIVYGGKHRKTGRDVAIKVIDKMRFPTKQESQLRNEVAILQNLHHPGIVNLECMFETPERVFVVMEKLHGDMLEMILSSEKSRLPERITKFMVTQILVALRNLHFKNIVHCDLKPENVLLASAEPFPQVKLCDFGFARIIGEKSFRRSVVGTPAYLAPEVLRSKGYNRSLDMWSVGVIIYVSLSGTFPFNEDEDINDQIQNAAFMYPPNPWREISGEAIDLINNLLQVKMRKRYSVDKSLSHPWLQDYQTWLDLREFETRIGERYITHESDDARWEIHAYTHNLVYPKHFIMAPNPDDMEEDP
assay_text: Kinase panel profiling at 1 µmol/L (MSA or IMAP), percentage inhibition
Type: biochemical
test_context: kinase PKD3; 1 µmol/L single concentration; read-out: %-inhibition at 1 µmol/L, PKD3
measurement_name: inhibition at 1 µM (%)
Numbers only, in %.

Consider the reported inhibition at 1 µM for these molecules:
smiles_repr | inhibition at 1 µM (%)
C[C@H]1Oc2cc(cnc2N)-c2c(nn(C)c2C#N)CN(C)C(=O)c2ccc(F)cc21 | 1.46
Cn1cnc2c(F)c(Nc3ccc(Br)cc3Cl)c(C(=O)NOCCO)cc21 | 0.359
CCN1C(=O)N(c2c(F)c(OC)cc(OC)c2F)Cc2cnc3[nH]c(CN4CCOCC4)cc3c21 | 14
Cn1cnc2c(F)c(Nc3ccc(Br)cc3F)c(C(=O)NOCCO)cc21 | 0.731
C[C@H](Nc1ncnc2nc[nH]c12)c1cc2cccc(Cl)c2c(=O)n1-c1ccccc1 | -3.52
FC(F)(F)c1ccc(CNc2ccc(Cc3c[nH]c4ncc(Cl)cc34)cn2)cn1 | -12
Cc1nc(NC(=O)N2CCC[C@H]2C(N)=O)sc1-c1ccnc(C(C)(C)C(F)(F)F)c1 | -2.46

Q. Provide the reported inhibition at 1 µM (system: panel of 255 wild-type kinases (Homo sapiens, UniProt O94806)) for "CCn1c(=O)c(-c2cc(NC(=O)Nc3ccccc3)c(F)cc2Br)cc2cnc(NC)cc21"
A. 15

---

assay_target: panel of 255 wild-type kinases (Homo sapiens, UniProt P23443)
Sequence (P23443 whole entry): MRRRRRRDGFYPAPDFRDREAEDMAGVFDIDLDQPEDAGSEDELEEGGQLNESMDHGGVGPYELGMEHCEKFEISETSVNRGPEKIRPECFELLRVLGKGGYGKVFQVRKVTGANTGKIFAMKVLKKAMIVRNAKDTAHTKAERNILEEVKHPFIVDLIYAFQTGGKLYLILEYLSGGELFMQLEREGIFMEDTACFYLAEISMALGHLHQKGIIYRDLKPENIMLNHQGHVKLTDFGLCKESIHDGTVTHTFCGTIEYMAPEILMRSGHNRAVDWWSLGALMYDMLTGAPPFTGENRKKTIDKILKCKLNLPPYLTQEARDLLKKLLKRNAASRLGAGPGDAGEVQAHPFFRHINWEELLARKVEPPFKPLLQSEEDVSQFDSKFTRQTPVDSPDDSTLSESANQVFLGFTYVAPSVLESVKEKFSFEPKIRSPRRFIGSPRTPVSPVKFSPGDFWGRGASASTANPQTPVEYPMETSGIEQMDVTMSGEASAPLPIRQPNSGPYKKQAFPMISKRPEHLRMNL
assay_text: Kinase panel profiling at 1 µmol/L (MSA or IMAP), percentage inhibition
Type: biochemical
test_context: p70S6K; 1 µmol/L single concentration; read-out: %-inhibition, p70S6K
measurement_name: inhibition at 1 µM (%)
Numbers only, in %.

Look up inhibition at 1 µM for the entries below, preserving their order.
1. CCc1nc(C(N)=O)c(Nc2ccc(N3CCC(N4CCN(C)CC4)CC3)c(OC)c2)nc1NC1CCOCC1 [gilteritinib]
2. Cc1nc(NC(=O)N2CCC[C@H]2C(N)=O)sc1-c1ccnc(C(C)(C)C(F)(F)F)c1 [alpelisib]
3. C[C@H]1Oc2cc(cnc2N)-c2c(nn(C)c2C#N)CN(C)C(=O)c2ccc(F)cc21 [lorlatinib]

A.
1. 79
2. 9
3. 8

---

Can you tell me inhibition at 1 µM for the items I'm about to list?
assay_target: panel of 255 wild-type kinases (Homo sapiens)
assay_text: Kinase panel profiling at 1 µmol/L (MSA or IMAP), percentage inhibition
Type: biochemical
test_context: kinase DYRK2; 1 µmol/L single concentration; read-out: %-inhibition at 1 µmol/L, DYRK2

Consider the reported inhibition at 1 µM for these molecules:
molecule | inhibition at 1 µM
C[C@H]1Oc2cc(cnc2N)-c2c(nn(C)c2C#N)CN(C)C(=O)c2ccc(F)cc21 [lorlatinib] | 4.35%
COc1cc2ncnc(Nc3ccc(F)c(Cl)c3)c2cc1NC(=O)/C=C/CN1CCCCC1 [dacomitinib] | 38%
O=C(Nc1cnn2ccc(N3CCC[C@@H]3c3cc(F)ccc3F)nc12)N1CC[C@H](O)C1 [larotrectinib] | 6%

Look up inhibition at 1 µM for the entries below, preserving their order.
1. C=CC(=O)N1CCC([C@@H]2CCNc3c(C(N)=O)c(-c4ccc(Oc5ccccc5)cc4)nn32)CC1 [zanubrutinib]
2. COC(=O)N[C@@H](C)CNc1nccc(-c2cn(C(C)C)nc2-c2cc(Cl)cc(NS(C)(=O)=O)c2F)n1 [encorafenib]

A.
1: 13%; 2: 11%

Look up inhibition at 1 µM for the entries below, preserving their order.
1. CO[C@]1(C(=O)N[C@@H](C)c2ccc(-n3cc(F)cn3)nc2)CC[C@H](c2nc(C)cc(Nc3cc(C)[nH]n3)n2)CC1 [pralsetinib]
2. C[C@H](Nc1ncnc2nc[nH]c12)c1cc2cccc(Cl)c2c(=O)n1-c1ccccc1 [duvelisib]
3. Cn1cnc2c(F)c(Nc3ccc(Br)cc3F)c(C(=O)NOCCO)cc21 [binimetinib]
4. CCN1C(=O)N(c2c(F)c(OC)cc(OC)c2F)Cc2cnc3[nH]c(CN4CCOCC4)cc3c21 [pemigatinib]

A.
-0.768%
8%
6.52%
12%

Look up inhibition at 1 µM for the entries below, preserving their order.
1. CCn1c(=O)c(-c2cc(NC(=O)Nc3ccccc3)c(F)cc2Br)cc2cnc(NC)cc21 [ripretinib]
2. CN1CCN(c2ccc(C(=O)Nc3n[nH]c4ccc(Cc5cc(F)cc(F)c5)cc34)c(NC3CCOCC3)c2)CC1 [entrectinib]
3. CCc1nc(C(N)=O)c(Nc2ccc(N3CCC(N4CCN(C)CC4)CC3)c(OC)c2)nc1NC1CCOCC1 [gilteritinib]
4. COc1ccc(CN2C3CC2CN(c2ccc(-c4cc(OCC(C)(C)O)cn5ncc(C#N)c45)cn2)C3)cn1 [selpercatinib]
5. Cn1cnc2c(F)c(Nc3ccc(Br)cc3Cl)c(C(=O)NOCCO)cc21 [selumetinib]
6. Cn1cc(-c2cc3c(N4CCN(c5ncc([C@@](C)(N)c6ccc(F)cc6)cn5)CC4)ncnn3c2)cn1 [avapritinib]

A.
["4.57%", "11%", "39%", "66%", "-2.7%", "56%"]
